# test_protocol: cells
# Format: functional, cell-based
# condition_context: Homo sapiens, NKYS, 48 h
measured_metric: IC50 (nM)

a. O=C(CCCCCCn1cc(-c2ncnc3[nH]ccc23)cn1)NO
b. C1=N/C2=N/c3ccc(OCCN4CCCC4)c(c3)COC/C=C/COCc3cccc(c3)C(=C1)N2
INPUT: Which is greater in IC50, the first item a or the second item b ? Give the label under which the chosen entry appears.
OUTPUT: b
(b: 1600 nM, a: 450 nM)

* * *

# experimental_system: Histone deacetylase 11 (Homo sapiens, UniProt Q96DB2)
# Sequence (Q96DB2 whole entry, the tested form may be a part): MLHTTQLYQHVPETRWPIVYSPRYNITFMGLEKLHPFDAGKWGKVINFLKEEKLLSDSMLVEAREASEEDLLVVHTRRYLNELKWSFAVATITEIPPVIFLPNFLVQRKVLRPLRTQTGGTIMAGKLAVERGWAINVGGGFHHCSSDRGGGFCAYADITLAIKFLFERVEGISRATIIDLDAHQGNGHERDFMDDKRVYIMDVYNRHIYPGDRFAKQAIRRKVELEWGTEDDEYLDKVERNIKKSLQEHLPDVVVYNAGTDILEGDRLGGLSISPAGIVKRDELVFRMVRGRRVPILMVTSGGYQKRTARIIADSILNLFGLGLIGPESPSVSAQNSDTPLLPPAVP
# test_protocol: Inhibition of C-terminal His tagged human recombinant HDAC11 (1 to 347 residues) expressed in Baculovirus infected insect cells in presence of ATP
measured_metric: IC50 (µM)
Use µM as the unit, but write only the number.

INPUT: Entry O=C(CCCCCCn1cc(-c2ncnc3[nH]ccc23)cn1)NO needs its IC50 filled in; supply it.
OUTPUT: 0.031

* * *

# experimental_system: Tyrosine-protein kinase JAK2 (Homo sapiens, UniProt O60674)
# Sequence (O60674 whole entry, the tested form may be a part): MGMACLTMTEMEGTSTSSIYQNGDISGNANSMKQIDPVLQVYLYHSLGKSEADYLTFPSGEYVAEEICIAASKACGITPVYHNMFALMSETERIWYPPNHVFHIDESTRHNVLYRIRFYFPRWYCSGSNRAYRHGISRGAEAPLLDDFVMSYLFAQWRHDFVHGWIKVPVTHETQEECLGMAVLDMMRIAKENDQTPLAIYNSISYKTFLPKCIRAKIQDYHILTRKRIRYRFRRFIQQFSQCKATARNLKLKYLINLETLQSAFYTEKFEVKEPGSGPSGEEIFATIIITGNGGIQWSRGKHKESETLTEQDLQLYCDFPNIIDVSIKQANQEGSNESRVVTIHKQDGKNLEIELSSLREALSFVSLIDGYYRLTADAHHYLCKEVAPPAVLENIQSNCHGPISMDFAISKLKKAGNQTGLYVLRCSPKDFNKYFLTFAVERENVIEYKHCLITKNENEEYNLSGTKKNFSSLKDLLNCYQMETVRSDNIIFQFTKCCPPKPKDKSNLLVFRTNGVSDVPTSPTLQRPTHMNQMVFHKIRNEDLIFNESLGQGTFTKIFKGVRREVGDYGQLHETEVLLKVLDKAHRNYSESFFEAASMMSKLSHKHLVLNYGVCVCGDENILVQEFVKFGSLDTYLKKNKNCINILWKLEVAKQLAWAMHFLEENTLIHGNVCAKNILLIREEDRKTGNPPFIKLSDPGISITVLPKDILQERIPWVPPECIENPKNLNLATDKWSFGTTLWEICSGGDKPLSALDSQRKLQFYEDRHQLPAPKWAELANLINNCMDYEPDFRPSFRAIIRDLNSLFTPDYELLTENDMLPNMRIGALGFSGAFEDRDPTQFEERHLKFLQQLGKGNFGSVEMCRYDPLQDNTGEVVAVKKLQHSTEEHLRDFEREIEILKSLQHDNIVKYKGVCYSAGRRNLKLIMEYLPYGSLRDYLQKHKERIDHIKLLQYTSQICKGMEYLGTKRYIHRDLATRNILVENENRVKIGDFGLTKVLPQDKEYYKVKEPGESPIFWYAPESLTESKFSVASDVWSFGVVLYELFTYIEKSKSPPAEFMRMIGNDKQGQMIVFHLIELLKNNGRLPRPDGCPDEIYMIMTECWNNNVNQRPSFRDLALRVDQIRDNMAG
# test_protocol: Binding affinity to N-terminal His tagged human recombinant JAK2 (1014 to 1132 residues) expressed in Escherichia coli after 300 mins by LC/MS analysis
# condition_context: read-out: Kd(app)
measured_metric: Kd (nM)
Use nM as the unit, but write only the number.

INPUT: Given O=C(/C=C/c1ccc(NCCCn2cc(-c3ncnc4[nH]ccc34)cn2)cc1)NO , report its Kd on Tyrosine-protein kinase JAK2 (Homo sapiens, UniProt O60674).
OUTPUT: 200

* * *

# experimental_system: Non-receptor tyrosine-protein kinase TYK2 (Homo sapiens)
# Sequence (P29597 whole entry): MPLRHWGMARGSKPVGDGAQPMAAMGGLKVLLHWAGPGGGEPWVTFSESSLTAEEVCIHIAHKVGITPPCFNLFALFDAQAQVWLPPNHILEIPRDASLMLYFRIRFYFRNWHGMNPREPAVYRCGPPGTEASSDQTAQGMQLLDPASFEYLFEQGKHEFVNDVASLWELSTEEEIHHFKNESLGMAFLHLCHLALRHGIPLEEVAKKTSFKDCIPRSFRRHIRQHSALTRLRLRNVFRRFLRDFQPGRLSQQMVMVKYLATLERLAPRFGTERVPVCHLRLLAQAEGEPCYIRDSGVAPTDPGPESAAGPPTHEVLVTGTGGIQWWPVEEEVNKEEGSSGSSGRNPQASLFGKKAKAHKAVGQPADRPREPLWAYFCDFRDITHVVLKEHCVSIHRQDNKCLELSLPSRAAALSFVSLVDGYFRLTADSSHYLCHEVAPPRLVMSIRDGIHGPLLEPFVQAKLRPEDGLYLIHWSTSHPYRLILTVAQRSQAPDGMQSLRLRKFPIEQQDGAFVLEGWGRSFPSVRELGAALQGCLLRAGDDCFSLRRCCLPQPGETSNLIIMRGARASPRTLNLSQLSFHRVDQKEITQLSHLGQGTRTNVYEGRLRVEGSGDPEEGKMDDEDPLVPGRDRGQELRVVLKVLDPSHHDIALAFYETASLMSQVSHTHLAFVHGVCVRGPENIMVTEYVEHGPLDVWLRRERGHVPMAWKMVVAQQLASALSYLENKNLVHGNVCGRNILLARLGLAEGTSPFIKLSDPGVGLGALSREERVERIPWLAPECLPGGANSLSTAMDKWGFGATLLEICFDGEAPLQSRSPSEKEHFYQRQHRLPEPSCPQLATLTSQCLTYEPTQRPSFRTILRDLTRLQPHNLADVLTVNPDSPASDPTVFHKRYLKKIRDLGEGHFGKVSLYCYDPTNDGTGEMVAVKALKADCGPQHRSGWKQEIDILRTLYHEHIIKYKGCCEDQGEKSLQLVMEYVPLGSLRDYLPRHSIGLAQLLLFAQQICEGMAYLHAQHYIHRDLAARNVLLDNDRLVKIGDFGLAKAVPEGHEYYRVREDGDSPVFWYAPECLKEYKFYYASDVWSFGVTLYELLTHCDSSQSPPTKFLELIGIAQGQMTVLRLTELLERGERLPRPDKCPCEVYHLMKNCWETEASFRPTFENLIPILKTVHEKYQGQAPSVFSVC
# test_protocol: Inhibition of human TYK2 using KKSRGDYMTMQIG as substrate in presence of [gamma-33P]-ATP
measured_metric: pIC50
The read-out pIC50 is expressed as -log10 of concentration in moles per litre.

INPUT: Entry O=C(CCCCCCn1cc(-c2ncnc3[nH]ccc23)cn1)NO needs its pIC50 filled in; supply it.
OUTPUT: 6.73

* * *

# test_protocol: Volume of distribution at steady state in Wistar rat at 1 mg/kg, iv by LC-MS/MS analysis
# Type: ADME, organism-based
# condition_context: in vivo, read-out: Vdss
measured_metric: Vd (L/kg)
Use L/kg as the unit, but write only the number.

INPUT: Entry O=C(CCCCCCn1cc(-c2ncnc3[nH]ccc23)cn1)NO needs its Vd filled in; supply it.
OUTPUT: 1.49

* * *

# experimental_system: UniProt Q13547
# Sequence (Q13547 whole entry, the tested form may be a part): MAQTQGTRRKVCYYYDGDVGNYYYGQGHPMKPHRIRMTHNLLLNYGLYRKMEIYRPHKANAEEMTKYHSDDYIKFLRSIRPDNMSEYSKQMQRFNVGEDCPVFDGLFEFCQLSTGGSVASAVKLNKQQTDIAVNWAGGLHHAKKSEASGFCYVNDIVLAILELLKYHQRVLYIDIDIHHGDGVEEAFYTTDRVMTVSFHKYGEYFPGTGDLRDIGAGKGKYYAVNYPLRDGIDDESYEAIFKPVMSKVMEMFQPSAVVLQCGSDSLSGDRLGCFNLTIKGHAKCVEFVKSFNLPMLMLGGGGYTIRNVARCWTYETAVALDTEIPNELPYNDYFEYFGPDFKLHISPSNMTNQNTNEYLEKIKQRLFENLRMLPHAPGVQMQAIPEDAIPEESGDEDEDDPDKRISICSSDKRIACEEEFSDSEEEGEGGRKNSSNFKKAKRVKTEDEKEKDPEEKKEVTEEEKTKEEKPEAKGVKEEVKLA
# test_protocol: Inhibition of C-terminal FLAG His tagged full length human recombinant HDAC1 (1 to 482 residues) expressed in baculovirus infected sf21 cells using RHKKAc as substrate in presence of ATP
pIC50: −log10 of the molar value.
measured_metric: pIC50

a. O=C(CCCCCCn1cc(-c2ncnc3[nH]ccc23)cn1)NO
b. O=C(/C=C/c1ccc(NCCCn2cc(-c3ncnc4[nH]ccc34)cn2)cc1)NO
INPUT: Which is greater in pIC50, the first item a or the second item b ? Give the label under which the chosen entry appears.
OUTPUT: a
(a: 8.16, b: 5.58)

* * *

# experimental_system: Tyrosine-protein kinase JAK2 (Homo sapiens)
# test_protocol: Binding affinity to N-terminal His tagged human recombinant JAK2 (1014 to 1132 residues) expressed in Escherichia coli after 60 to 90 mins by LC/MS analysis
# condition_context: read-out: Kd(app)
measured_metric: Kd (nM)

- O=C(CCCCCCCn1cc(-c2ncnc3[nH]ccc23)cn1)NO: 2000
- O=C(CCCCCCC(=O)Nc1ccc(NCCCn2cc(-c3ncnc4[nH]ccc34)cn2)cc1)NO: 1000
- O=C(CCCCCCC(=O)Nc1ccc(CCCn2cc(-c3ncnc4[nH]ccc34)cn2)cc1)NO: 2000
- O=C(CCCCCCn1cc(-c2ncnc3[nH]ccc23)cn1)NO: 5000

A. O=C(CCCn1cc(-c2ncnc3[nH]ccc23)cn1)NO
B. O=C(CCCCCCC(=O)Nc1ccc(NC(=O)CCCn2cc(-c3ncnc4[nH]ccc34)cn2)cc1)NO
INPUT: Which is greater in Kd, the first item A or the second item B ? Give the label under which the chosen entry appears.
OUTPUT: A
(A: 5000 nM, B: 2000 nM)
